Experiment: inhibitors of cytokine-induced nitrite release, dose response, cell-based, Griess absorbance, INS-1E, dry powder (AID 488866)
Conditions: INS-1E cytokine-induced nitrite, 48 h; series mostly up to 19.5 µM
Potency and affinity values are given separately. The source made the active and inactive calls.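 How the source made its calls: active means compounds that lower nitrite signal with fitted half-max concentration up to ten times top dose; inconclusive means flat curves showing 30 to 70% inhibition, or poor fits; inactive means the rest.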
MEASURED PROPERTY: outcome

Some compounds with known outcome results, for comparison:
[[record]]
record_smiles = "COc1ccc(S(=O)(=O)N(C)C[C@@H]2Oc3ccc(NC(=O)Nc4cccc5ccccc45)cc3C(=O)N([C@@H](C)CO)C[C@H]2C)cc1"
reported = "inactive"

[[record]]
record_smiles = "COc1ccc(S(=O)(=O)N(C)C[C@@H]2Oc3c(NC(=O)c4cccc5ccccc45)cccc3C(=O)N([C@@H](C)CO)C[C@H]2C)cc1"
reported = "inactive"

[[record]]
record_smiles = "COc1ccc(S(=O)(=O)N(C)C[C@@H]2Oc3c(NC(=O)Nc4cccc5ccccc45)cccc3C(=O)N([C@@H](C)CO)C[C@H]2C)cc1F"
reported = "inactive"

[[record]]
record_smiles = "COc1ccc(S(=O)(=O)N(C)C[C@@H]2Oc3c(NC(=O)Nc4cccc5c4CCCC5)cccc3C(=O)N([C@@H](C)CO)C[C@H]2C)cc1"
reported = "inactive"

[[record]]
record_smiles = "COc1ccc(S(=O)(=O)N(C)C[C@@H]2Oc3c(NC(=O)Nc4cccc5c4NSN5)cccc3C(=O)N([C@@H](C)CO)C[C@H]2C)cc1"
reported = "inactive"


Kindly consider the entry below.
Req: Data request, read-out outcome, for Cc1ccc(S(=O)(=O)N(C)C[C@@H]2Oc3c(NC(=O)Nc4cccc5ccccc45)cccc3C(=O)N([C@@H](C)CO)C[C@H]2C)cc1
Resp: inactive
